Would you kindly list clearance for each of these compounds?
Assay: Clearance in mouse at 2 mg/kg, iv or 10 mg/kg, po
Assay type: ADME, organism-based
Details: in vivo
Answer with the value and then the unit.

Use the examples below as a reference point.
structureString: Cc1cc(-c2cc(OC(F)(F)F)ccc2Cl)cc(C)c1OCCCC(=O)O
quantityName: clearance
assayResult: 4.9 mL/min/kg
--
structureString: O=C(O)CCCOc1ccc(-c2noc3ccccc23)c(Cl)c1Cl
quantityName: clearance
assayResult: 24 mL/min/kg

I need clearance for every entry listed below, if you could help.
1. O=C(O)CCc1cc2cc(-c3cc(OC(F)(F)F)ccc3F)ccc2o1
2. O=C(O)CCCOc1ccc(-c2cc(OC(F)(F)F)ccc2Cl)cc1

1: 20 mL/min/kg; 2: 17 mL/min/kg

* * *

Target: Free fatty acid receptor 4 (Homo sapiens)
Assay: Agonist activity at human GPR120 expressed in CHOK1 cells measured after 60 mins by IP1-HTRF assay relative to basal level
Format: functional, cell-based
Parameters: concentration or dose not given beside the values
Conditions: CHO-K1
Assign satisfied whenever Activity does not fall below 90%; assign not satisfied whenever it does.

Consider the worked cases shown below.
molecule: O=C(O)CCCOc1ccc(-c2cc(Oc3cccnc3)ccc2Cl)cc1
group: not satisfied

molecule: O=C(O)CCC1Cc2cc(-c3cc(OC(F)(F)F)ccc3F)ccc2O1 (stereo in doubt; 44)
group: satisfied

molecule: O=C(O)CCC1Cc2cc(-c3cc(OC(F)(F)F)ccc3F)ccc2O1 (stereo in doubt; 45)
group: not satisfied

Tell me whether Activity is at least 90% here: O=C(O)CCCOc1ccc(-c2noc3ccccc23)c(Cl)c1Cl not satisfied

* * *

Target: Cytochrome P450 3A4 (Homo sapiens, UniProt P08684)
Sequence (P08684 whole entry): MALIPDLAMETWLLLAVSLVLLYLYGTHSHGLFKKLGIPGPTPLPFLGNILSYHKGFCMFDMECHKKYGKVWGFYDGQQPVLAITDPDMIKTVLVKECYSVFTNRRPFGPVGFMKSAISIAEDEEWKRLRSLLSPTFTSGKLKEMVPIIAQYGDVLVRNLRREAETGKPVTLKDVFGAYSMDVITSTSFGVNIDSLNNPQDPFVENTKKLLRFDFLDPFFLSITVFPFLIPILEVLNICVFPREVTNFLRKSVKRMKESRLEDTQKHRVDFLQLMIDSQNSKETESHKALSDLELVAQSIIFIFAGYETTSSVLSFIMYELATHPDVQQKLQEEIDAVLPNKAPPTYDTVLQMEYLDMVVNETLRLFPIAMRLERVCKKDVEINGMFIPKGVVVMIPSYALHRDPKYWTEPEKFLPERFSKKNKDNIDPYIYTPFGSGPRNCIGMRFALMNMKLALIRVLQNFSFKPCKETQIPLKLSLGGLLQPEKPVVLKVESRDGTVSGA
quantityName: IC50

# IC50 lookup, item O=C(O)CCCOc1ccc(-c2cc(OC(F)(F)F)ccc2Cl)cc1 > 50 µM

* * *

Assay: Cmax in mouse at 2 mg/kg, iv or 10 mg/kg, po
Format: ADME, organism-based
Settings: in vivo
What Cmax was measured for each of the following?
Give bare numbers, in µM.

Study these solved cases before continuing.
structureString: O=C(O)CCc1cc2cc(-c3cc(OC(F)(F)F)ccc3F)ccc2o1
readoutUnit: µM
Cmax: 8.17

structureString: O=C(O)CCCOc1ccc(-c2noc3ccccc23)c(Cl)c1Cl
readoutUnit: µM
Cmax: 4.64

structureString: O=C(O)CCCOc1ccc(-c2cc(OC(F)(F)F)ccc2Cl)cc1
readoutUnit: µM
Cmax: 2.38

Cmax for Cc1cc(-c2cc(OC(F)(F)F)ccc2Cl)cc(C)c1OCCCC(=O)O ? 6.1

* * *

Experiment: Volume of distribution in mouse at 2 mg/kg, iv or 10 mg/kg, po
Format: ADME, organism-based
Conditions: in vivo
quantityName: Vd (L/kg)
Give bare numbers, in L/kg.

structureString: Cc1cc(-c2cc(OC(F)(F)F)ccc2Cl)cc(C)c1OCCCC(=O)O
Vd (L/kg): 0.95
//
structureString: O=C(O)CCc1cc2cc(-c3cc(OC(F)(F)F)ccc3F)ccc2o1
Vd (L/kg): 3
//
structureString: O=C(O)CCCOc1ccc(-c2cc(OC(F)(F)F)ccc2Cl)cc1
Vd (L/kg): 1.86

Attention now turns to another entry.
Which Vd value belongs to O=C(O)CCCOc1ccc(-c2noc3ccccc23)c(Cl)c1Cl ? 5.6

* * *

Please respond with reported pEC50 for every item in the list.
Target: Free fatty acid receptor 4 (Homo sapiens)
Sequence (Q5NUL3 whole entry): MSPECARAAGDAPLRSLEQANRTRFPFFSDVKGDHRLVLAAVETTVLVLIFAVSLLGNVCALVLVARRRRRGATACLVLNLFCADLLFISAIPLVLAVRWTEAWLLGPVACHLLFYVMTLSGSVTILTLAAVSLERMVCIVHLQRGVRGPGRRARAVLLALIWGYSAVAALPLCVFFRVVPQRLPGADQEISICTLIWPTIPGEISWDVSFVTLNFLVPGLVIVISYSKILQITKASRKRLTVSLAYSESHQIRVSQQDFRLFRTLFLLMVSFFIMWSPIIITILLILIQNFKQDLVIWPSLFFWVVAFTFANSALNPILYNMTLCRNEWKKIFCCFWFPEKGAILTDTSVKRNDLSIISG
Assay: Agonist activity at human GPR120 expressed in CHOK1 cells measured after 60 mins by IP1-HTRF assay
Numbers only, as −log10 of the molar value.

compound: O=C(O)CCCOc1ccc(-c2cc(Oc3cccc(F)c3)ccc2Cl)cc1
pEC50: 6.70

compound: O=C(O)CCCOc1ccc(-c2noc3ccccc23)c(Cl)c1Cl
pEC50: 6.32

compound: Cc1cc(OC2CCC2)cc(-c2ccc3oc(CCC(=O)O)cc3c2)c1
pEC50: 7.17

compound: O=C(O)CCC1Cc2cc(-c3cc(OC(F)(F)F)ccc3F)ccc2O1 (stereo in doubt; 44)
pEC50: 7.11

Need pEC50, item COc1cccc(Oc2cccc(-c3ccc(OCCCC(=O)O)cc3)c2)c1 6.30

* * *

Target: Free fatty acid receptor 4 (Homo sapiens)
Assay: Agonist activity at human GPR120 expressed in CHOK1 cells measured after 60 mins by IP1-HTRF assay relative to basal level
Format: functional, cell-based
Parameters: concentration or dose not given beside the values
Settings: CHO-K1
Using Activity as the sorting value, the categories are bin A: < 50%; bin B: ≥ 50% and < 70%; bin C: ≥ 70%

compound: O=C(O)CCCOc1ccc(-c2cccc(Oc3ccccc3)c2)cc1
group: bin A

compound: Cc1cc(OCCCC(=O)O)ccc1-c1cc(OC(F)(F)F)ccc1Cl
group: bin A

compound: O=C(O)CCc1cc2cc(-c3cc(OC(F)(F)F)ccc3F)ccc2o1
group: bin C

compound: Cc1ccc(Oc2cccc(-c3ccc(OCCCC(=O)O)cc3)c2)cc1
group: bin C

compound: CCOc1ccc(Cl)c(-c2ccc(OCCCC(=O)O)cc2)c1
group: bin B

Hi there! Could you help me figure out the category for O=C(O)CCCOc1ccc(-c2cc(OC(F)(F)F)ccc2Cl)c(F)c1 please? bin B

Lab note: which band did O=C(O)CCCOc1ccc(-c2ccccc2OC(F)(F)F)cc1 land in? bin A

* * *

Answer each item with its documented pEC50.
Biological target: Free fatty acid receptor 4 (Homo sapiens, UniProt Q5NUL3)
Test: Agonist activity at human GPR120 expressed in CHOK1 cells measured after 60 mins by IP1-HTRF assay
Answers are plain numbers, as −log10 of the molar value.

Use these answered entries as a reference point.
compound: O=C(O)CCCOc1ccc(-c2cc(Oc3cccnc3)ccc2Cl)cc1
pEC50: 7.06
//
compound: O=C(O)CCCOc1ccc(-c2ccccc2OC(F)(F)F)cc1
pEC50: 5.52

// input: 3 compounds below; output: pEC50 for each
1. CC(CC(=O)O)c1cc2cc(-c3cc(OC(F)(F)F)ccc3F)ccc2o1 (racemic)
2. O=C(O)CCc1cc2cc(-c3cc(Cl)cc(OC4CCC4)c3)ccc2o1
3. O=C(O)CCCOc1ccc(-c2ccccc2Oc2ccccc2)cc1

1. 6.09
2. 6.73
3. 6.26

* * *

Molecular target: Sodium channel protein type 5 subunit alpha (Homo sapiens, UniProt Q14524)
Sequence (Q14524 whole entry): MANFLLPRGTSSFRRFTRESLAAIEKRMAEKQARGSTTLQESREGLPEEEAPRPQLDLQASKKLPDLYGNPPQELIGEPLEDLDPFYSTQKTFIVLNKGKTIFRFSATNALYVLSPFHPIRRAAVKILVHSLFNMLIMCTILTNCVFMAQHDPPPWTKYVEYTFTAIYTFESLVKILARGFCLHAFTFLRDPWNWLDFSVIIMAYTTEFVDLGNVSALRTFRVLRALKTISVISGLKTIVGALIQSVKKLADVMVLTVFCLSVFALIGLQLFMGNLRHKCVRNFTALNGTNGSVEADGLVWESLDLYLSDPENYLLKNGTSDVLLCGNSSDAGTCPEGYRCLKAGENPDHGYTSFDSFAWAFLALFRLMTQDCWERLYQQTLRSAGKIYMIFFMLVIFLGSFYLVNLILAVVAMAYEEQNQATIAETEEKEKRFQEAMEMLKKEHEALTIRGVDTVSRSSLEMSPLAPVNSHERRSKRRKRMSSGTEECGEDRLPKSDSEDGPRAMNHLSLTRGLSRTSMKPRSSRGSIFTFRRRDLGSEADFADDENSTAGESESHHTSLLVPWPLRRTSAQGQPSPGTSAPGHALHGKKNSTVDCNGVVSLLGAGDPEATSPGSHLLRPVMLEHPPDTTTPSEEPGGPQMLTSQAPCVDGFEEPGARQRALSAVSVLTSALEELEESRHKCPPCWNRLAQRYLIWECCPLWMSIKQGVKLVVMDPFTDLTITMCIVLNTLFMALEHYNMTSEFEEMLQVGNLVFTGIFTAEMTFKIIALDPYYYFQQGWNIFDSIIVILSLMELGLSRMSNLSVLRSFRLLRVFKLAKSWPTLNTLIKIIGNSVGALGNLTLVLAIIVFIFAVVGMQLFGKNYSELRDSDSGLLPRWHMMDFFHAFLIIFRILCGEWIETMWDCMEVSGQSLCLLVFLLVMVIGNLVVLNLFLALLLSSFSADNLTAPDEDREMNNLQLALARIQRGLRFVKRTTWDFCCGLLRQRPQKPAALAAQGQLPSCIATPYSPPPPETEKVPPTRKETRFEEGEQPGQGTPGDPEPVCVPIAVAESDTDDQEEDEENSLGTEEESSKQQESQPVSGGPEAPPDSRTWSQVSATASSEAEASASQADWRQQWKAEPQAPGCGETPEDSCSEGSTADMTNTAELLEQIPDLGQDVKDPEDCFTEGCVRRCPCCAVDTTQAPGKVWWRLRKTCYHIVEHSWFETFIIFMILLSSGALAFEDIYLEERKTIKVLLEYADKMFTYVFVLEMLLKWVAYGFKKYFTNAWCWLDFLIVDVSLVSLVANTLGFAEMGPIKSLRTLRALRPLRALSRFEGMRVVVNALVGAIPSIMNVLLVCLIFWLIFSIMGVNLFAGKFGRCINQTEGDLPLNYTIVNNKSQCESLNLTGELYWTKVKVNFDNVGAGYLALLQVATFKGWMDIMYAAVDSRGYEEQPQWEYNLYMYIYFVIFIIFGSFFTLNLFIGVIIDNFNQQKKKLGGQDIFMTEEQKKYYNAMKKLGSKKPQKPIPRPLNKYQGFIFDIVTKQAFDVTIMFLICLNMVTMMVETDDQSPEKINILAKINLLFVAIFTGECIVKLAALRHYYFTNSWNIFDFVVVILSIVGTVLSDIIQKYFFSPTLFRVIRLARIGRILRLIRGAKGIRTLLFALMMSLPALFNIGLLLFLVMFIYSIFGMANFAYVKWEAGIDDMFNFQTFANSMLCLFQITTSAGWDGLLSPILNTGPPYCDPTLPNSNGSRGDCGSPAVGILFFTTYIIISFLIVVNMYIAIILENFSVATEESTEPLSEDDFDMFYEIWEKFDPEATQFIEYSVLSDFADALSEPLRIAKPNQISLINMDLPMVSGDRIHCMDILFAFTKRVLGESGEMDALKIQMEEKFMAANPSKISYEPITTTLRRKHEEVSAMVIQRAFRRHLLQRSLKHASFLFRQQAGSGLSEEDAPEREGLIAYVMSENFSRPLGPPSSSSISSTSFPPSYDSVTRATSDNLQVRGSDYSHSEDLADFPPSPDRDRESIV
Assay: Inhibition of Nav1.5 (unknown origin)
Exercise: for every item that follows, state its recorded pIC50.
Numbers only, as −log10 of the molar value.

structureString: Cc1cc(-c2cc(OC(F)(F)F)ccc2Cl)cc(C)c1OCCCC(=O)O
assayedSystem: Sodium channel protein type 5 subunit alpha (Homo sapiens, UniProt Q14524)
assayResult: 5.04

We next turn to a different compound, shown below.
API: value(readout=pIC50, system=Sodium channel protein type 5 subunit alpha (Homo sapiens, UniProt Q14524)) for record O=C(O)CCCOc1ccc(-c2cc(OC(F)(F)F)ccc2Cl)cc1 4.76

* * *

Provide the recorded IC50 for the entries that follow.
Target: Voltage-dependent L-type calcium channel subunit alpha-1C (Homo sapiens, UniProt Q13936)
Sequence (Q13936 whole entry): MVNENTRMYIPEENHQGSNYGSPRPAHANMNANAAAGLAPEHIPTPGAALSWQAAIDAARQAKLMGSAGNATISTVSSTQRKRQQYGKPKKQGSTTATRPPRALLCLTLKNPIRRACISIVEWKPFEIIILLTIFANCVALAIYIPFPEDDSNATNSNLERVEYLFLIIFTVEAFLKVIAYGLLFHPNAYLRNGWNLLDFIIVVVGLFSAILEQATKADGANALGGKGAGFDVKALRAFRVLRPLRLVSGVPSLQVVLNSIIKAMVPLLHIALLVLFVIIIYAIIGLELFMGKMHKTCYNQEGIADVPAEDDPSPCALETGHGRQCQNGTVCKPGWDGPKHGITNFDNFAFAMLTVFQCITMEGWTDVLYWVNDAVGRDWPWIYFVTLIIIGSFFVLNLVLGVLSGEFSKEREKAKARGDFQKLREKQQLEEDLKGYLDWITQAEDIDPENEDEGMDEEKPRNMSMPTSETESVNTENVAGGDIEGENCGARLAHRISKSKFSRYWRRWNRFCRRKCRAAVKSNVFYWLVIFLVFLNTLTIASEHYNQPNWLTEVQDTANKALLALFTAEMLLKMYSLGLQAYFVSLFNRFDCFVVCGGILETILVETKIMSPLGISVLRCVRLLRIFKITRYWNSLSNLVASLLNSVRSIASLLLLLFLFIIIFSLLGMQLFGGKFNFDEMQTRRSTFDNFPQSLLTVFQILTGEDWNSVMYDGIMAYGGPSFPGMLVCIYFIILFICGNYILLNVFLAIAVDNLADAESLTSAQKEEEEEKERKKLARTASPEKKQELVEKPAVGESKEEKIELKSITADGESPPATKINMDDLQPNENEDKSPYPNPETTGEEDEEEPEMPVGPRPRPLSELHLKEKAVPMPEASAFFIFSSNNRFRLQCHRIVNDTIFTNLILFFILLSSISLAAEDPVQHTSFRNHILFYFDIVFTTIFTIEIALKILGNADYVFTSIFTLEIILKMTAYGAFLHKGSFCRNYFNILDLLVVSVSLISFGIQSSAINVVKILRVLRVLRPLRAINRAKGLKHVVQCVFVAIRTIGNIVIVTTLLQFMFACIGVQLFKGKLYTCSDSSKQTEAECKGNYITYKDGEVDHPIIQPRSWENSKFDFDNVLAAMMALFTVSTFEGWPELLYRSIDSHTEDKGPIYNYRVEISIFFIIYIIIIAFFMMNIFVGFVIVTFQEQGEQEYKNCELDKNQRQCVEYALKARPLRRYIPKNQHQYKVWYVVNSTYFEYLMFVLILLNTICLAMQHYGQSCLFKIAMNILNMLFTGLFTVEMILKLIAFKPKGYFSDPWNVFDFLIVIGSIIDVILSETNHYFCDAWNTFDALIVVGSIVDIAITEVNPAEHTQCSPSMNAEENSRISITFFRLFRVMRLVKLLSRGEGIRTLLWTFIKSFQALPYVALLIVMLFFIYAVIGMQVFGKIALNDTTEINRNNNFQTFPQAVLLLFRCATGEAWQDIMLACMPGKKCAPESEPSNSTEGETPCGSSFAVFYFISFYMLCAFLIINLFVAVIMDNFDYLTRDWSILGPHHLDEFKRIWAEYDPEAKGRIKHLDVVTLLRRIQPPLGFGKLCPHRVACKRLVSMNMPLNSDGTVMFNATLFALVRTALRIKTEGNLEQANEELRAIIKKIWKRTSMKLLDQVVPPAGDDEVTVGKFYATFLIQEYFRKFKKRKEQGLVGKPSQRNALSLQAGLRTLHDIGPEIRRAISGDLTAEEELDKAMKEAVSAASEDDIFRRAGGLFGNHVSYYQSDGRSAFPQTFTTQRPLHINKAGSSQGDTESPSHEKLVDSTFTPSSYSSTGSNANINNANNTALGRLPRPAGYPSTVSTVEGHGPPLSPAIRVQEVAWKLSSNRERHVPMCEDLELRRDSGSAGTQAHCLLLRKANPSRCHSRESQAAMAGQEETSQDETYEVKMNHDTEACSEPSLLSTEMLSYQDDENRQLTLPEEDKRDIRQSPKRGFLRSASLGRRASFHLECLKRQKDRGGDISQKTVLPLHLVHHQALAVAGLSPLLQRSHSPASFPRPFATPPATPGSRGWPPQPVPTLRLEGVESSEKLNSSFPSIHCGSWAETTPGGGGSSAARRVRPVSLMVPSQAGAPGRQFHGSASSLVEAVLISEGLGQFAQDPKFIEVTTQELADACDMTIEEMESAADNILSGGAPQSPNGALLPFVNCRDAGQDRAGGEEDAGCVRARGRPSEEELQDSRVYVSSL
Experiment: Inhibition of Cav1.2 (unknown origin)
Give bare numbers, in µM.

structureString: Cc1cc(-c2cc(OC(F)(F)F)ccc2Cl)cc(C)c1OCCCC(=O)O
IC50 / µM: 12.8

Now consider a different molecule.
Can you look up the measured IC50 of O=C(O)CCc1cc2cc(-c3cc(OC(F)(F)F)ccc3F)ccc2o1 for me? 15.1

* * *

Experiment: Drug uptake in GPR120 knockout mouse blood at 30 mg/kg, po
Format: ADME, organism-based
Conditions: in vivo, read-out: Drug uptake
quantityName: concentration
# number then unit; no other words

Item O=C(O)CCc1cc2cc(-c3cc(OC(F)(F)F)ccc3F)ccc2o1 has what recorded concentration? 24.8 µM

* * *

Molecular target: Free fatty acid receptor 1 (Homo sapiens, UniProt O14842)
Sequence (O14842 whole entry): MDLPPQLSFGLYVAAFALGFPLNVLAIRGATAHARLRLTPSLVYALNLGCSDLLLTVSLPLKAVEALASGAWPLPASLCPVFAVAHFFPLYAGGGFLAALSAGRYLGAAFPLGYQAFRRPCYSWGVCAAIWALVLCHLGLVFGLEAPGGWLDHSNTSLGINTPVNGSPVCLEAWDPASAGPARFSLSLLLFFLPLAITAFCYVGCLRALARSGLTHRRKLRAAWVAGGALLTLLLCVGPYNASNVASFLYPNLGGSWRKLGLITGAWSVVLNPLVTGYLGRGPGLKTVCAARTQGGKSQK
Assay: Agonist activity at human GPR40 measured after 60 mins by IP1-HTRF assay
Assign pEC50 to each entry below.
Answers are plain numbers, as −log10 of the molar value.

Observe how each entry below is paired with its result.
structureString: Cc1cc(-c2cc(OC(F)(F)F)ccc2F)ccc1OCCCC(=O)O
pEC50: 5.03

structureString: O=C(O)CCCOc1ccc(-c2cc(Oc3ccccc3)ccc2F)cc1
pEC50: 5.45

structureString: O=C(O)CCCOc1c(F)cc(-c2cc(OC(F)(F)F)ccc2F)cc1F
pEC50: 5.27

structureString: O=C(O)CCc1cc2cc(-c3cccc(OC4CCC4)c3)ccc2o1
pEC50: 5.60

structureString: CCOc1ccc(F)c(-c2ccc(OCCCC(=O)O)cc2)c1
pEC50: 5.50

Turning now to a further molecule:
Name the recorded pEC50 for O=C(O)CCCOc1ccc(-c2cc(Oc3cccc(F)c3)ccc2Cl)cc1 . 5.47
